studyTarget: cynomolgus PAI-1 (cynomolgus, UniProt P05121 24-402 (human entry), limits assumed)
assayComment: cell-based or functional assay
valueKind: IC50 ratio cyno/human

1) Antibody 23, scFv (scFv, V domains shown) VH: QVQLQQSGAEVKKPGSSVKVSCKASGGTFSSYAISWVRQAPGQGLEWMGGIIPTFGTANYAQKFQSRVTITADESTSTAYMELSGLRSEDTAVYYCAREKRQWLEGHFDYWGRGTPVTVSS VL: DIQMTQSPSFLSASIGDRVTITCRASEGIYHSLAWYQQKPGKAPKLLIYRASSLASGAPSRFSGSGSGTDFTLTISSLQPDDFATYYCQQYSNYPLTFGGGTKLEIK
0.3
2) Antibody 01, scFv (scFv, V domains shown) VH: QVQLVQSGAEVKKPGSSVKVSCKASGGTFSSYAISWVRQAPGQGLEWMGGIIPIFGTANYAQKFQGRVTITADESTSTAYMELSSLRSEDTAVYYCAREKRQWLEGHFDYWGRGTLVTVSS VL: DIQMTQSPSTLSASVGDRVTITCRASEGIYRSLAWYQQKPGKAPKLLIYKASSLASGVPSRFSGSGSGTEFTLTISSLQPDDFATYYCQQYSNYPLTFGGGTKVEIK
0.4
3) Antibody 06, scFv (scFv, V domains shown) VH: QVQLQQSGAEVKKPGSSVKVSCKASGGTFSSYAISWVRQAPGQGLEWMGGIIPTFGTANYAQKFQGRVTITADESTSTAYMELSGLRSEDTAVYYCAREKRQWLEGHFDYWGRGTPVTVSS VL: DIQMTQSPSFLSASIGDRVTITCRASEGIYHELAWYQQKPGKAPKLLIYRASSLASGAPSRFSGSGSGTDFTLTISSLQPDDFATYYCQQYSNYPLTFGRGTKLEIK
0.4
